- protocol: Urinary excretion of phenolic metabolites after intake of the GCPE nutraceutical
- assay-setup: week 0, interval 3–6 h
// returns Condition not met unless Amount excreted in urine, 3-6 h is strictly below 0.2 µmol, in which case Condition met

# count of solved cases: 8
* O=C(O)Cc1cccc(O)c1 [3′-Hydroxyphenylacetic acid] | Condition not met
* O=C(CCc1ccc(O)c(O)c1)OC1CC(O)(C(=O)O)CC(O)C1O (centres unmarked) [3-Dihydrocaffeoylquinic acid] | Condition met
* COc1cc(C=CC(=O)O)ccc1OC1OC(C(=O)O)C(O)C(O)C1O (centres unmarked) [FA-4′-glucuronide, 3′-Methoxycinnamic acid-4′-glucuronide] | Condition not met
* O=C(O)CCc1ccc(O)c(OS(=O)(=O)O)c1 [DHCA-3′-sulfate] | Condition not met
* COc1cc(CC(=O)O)ccc1O [4′-Hydroxy-3′-methoxyphenylacetic acid] | Condition not met
* COc1cc(CCC(=O)OC2C(O)CC(O)(C(=O)O)CC2O)ccc1O (centres unmarked) [4-Dihydroferuloylquinic acid] | Condition met
* O=C(O)/C=C/c1ccc(O)c(O)c1 [CA, 3′,4′-Dihydroxycinnamic acid] | Condition met
* O=C(O)Cc1ccc(O)c(O)c1 [3′,4′-Dihydroxyphenylacetic acid] | Condition met

Input O=C(O)CCc1ccc(O)c(O)c1 [DHCA, 3-(3′,4′-Dihydroxyphenyl)propanoic acid] ; condition: Amount excreted in urine, 3-6 h strictly below 0.2 µmol. Does it hold?
Condition not met

Input O=C(O)CNC(=O)c1cccc(O)c1 [3′-Hydroxyhippuric acid] ; condition: Amount excreted in urine, 3-6 h strictly below 0.2 µmol. Does it hold?
Condition not met

Input COc1cc(/C=C/C(=O)OC2[C@H](O)CC(O)(C(=O)O)C[C@H]2O)ccc1O (some centres unmarked) [4-Feruloylquinic acid] ; condition: Amount excreted in urine, 3-6 h strictly below 0.2 µmol. Does it hold?
Condition met

Input COc1cc(/C=C/C(=O)O[C@@H]2C[C@@](O)(C(=O)O)C[C@@H](O)[C@@H]2O)ccc1O [5-Feruloylquinic acid] ; condition: Amount excreted in urine, 3-6 h strictly below 0.2 µmol. Does it hold?
Condition not met

Input COc1ccc(/C=C/C(=O)O)cc1O [iFA, 3′-Hydroxy-4′-methoxycinnamic acid] ; condition: Amount excreted in urine, 3-6 h strictly below 0.2 µmol. Does it hold?
Condition not met

Input COc1cc(CCC(=O)O)ccc1OS(=O)(=O)O [DHFA-4′-sulfate] ; condition: Amount excreted in urine, 3-6 h strictly below 0.2 µmol. Does it hold?
Condition not met

Input COc1ccc(CCC(=O)O)cc1O [DHiFA] ; condition: Amount excreted in urine, 3-6 h strictly below 0.2 µmol. Does it hold?
Condition not met

Input COc1ccc(C=CC(=O)O)cc1OS(=O)(=O)O [iFA-3′-sulfate, 4′-Methoxycinnamic acid-3′-sulfate] ; condition: Amount excreted in urine, 3-6 h strictly below 0.2 µmol. Does it hold?
Condition met

* * *

- protocol: Urinary excretion of phenolic metabolites after intake of the GCPE nutraceutical
- assay-setup: urine; week 8; mean ± SEM, n = 9
property-label: Cumulative urinary excretion, Total 0–24 h (µmol)
Respond numerically; units are µmol and should not be typed.

Record excerpt, results attached:
* O=C(O)CCc1ccc(OS(=O)(=O)O)c(O)c1 [DHCA-4′-sulfate] | 10
* COc1cc(/C=C/C(=O)OC2[C@H](O)CC(O)(C(=O)O)C[C@H]2O)ccc1O (stereo partly drawn) [4-Feruloylquinic acid] | 0.4
* O=C(O)Cc1cccc(O)c1 [3′-Hydroxyphenylacetic acid] | 9
* COc1cc(CC(=O)O)ccc1O [4′-Hydroxy-3′-methoxyphenylacetic acid] | 12
* COc1cc(/C=C/C(=O)NCC(=O)O)ccc1O [Feruloylglycine] | 25

Return value of Cumulative urinary excretion, Total 0–24 h for input O=C(O)CCc1ccc(O)c(O[C@@H]2O[C@H](C(=O)O)[C@@H](O)[C@H](O)[C@H]2O)c1 [DHCA-3′-glucuronide] , no commentary.
0.5

Return value of Cumulative urinary excretion, Total 0–24 h for input COc1cc(CCC(=O)O)ccc1O[C@@H]1O[C@H](C(=O)O)[C@@H](O)[C@H](O)[C@H]1O [DHFA-4′-glucuronide] , no commentary.
7

Return value of Cumulative urinary excretion, Total 0–24 h for input COc1ccc(CCC(=O)O)cc1OC [Dihydrodimethoxycinnamic acid, 3-(3′,4′-Dimethoxyphenyl)propanoic acid] , no commentary.
0.63

Return value of Cumulative urinary excretion, Total 0–24 h for input O=C(O)CNC(=O)c1cccc(O)c1 [3′-Hydroxyhippuric acid] , no commentary.
46

Return value of Cumulative urinary excretion, Total 0–24 h for input O=C(O)CCc1ccc(OS(=O)(=O)O)cc1 [DHCoA-4′-sulfate, 3-(Phenyl)propanoic acid-4′-sulfate] , no commentary.
21

Return value of Cumulative urinary excretion, Total 0–24 h for input COc1cc(CCC(=O)O)ccc1OS(=O)(=O)O [DHFA-4′-sulfate] , no commentary.
9

Return value of Cumulative urinary excretion, Total 0–24 h for input O=C(O)c1ccc(O)cc1 [4-Hydroxybenzoic acid] , no commentary.
1.01

Return value of Cumulative urinary excretion, Total 0–24 h for input COc1ccc(CCC(=O)O)cc1O [DHiFA] , no commentary.
3.2

Return value of Cumulative urinary excretion, Total 0–24 h for input O=C(O)/C=C/c1ccc(O)c(OS(=O)(=O)O)c1 [CA-3′-sulfate, 4′Hydroxycinnamic acid-3′-sulfate] , no commentary.
4.4

Return value of Cumulative urinary excretion, Total 0–24 h for input O=C(/C=C/c1ccc(O)c(O)c1)OC1[C@H](O)CC(O)(C(=O)O)C[C@H]1O (stereo partly drawn) [4-Caffeoylquinic acid] , no commentary.
0.15

* * *

- protocol: Plasma pharmacokinetics of phenolic metabolites after intake of the GCPE nutraceutical (LC-MS-QToF)
- assay-setup: week 0
property-label: AUC0–24h (µM/min)
Respond numerically; units are µM/min and should not be typed.

* O=C(O)CNC(=O)c1ccc(O)cc1 [4′-Hydroxyhippuric acid] | 1.2
* COc1cc(/C=C/C(=O)NCC(=O)O)ccc1O [Feruloylglycine] | 0.029
* O=C(O)CNC(=O)c1cccc(O)c1 [3′-Hydroxyhippuric acid] | 10
* O=C(O)Cc1cccc(O)c1 [3′-Hydroxyphenylacetic acid] | 2.6
* COc1ccc(CCC(=O)O)cc1O[C@@H]1O[C@H](C(=O)O)[C@@H](O)[C@H](O)[C@H]1O [DHiFA-3′-glucuronide] | 0.6
* COc1cc(C=CC(=O)O)ccc1OS(=O)(=O)O [FA-4′-sulfate, 3′-Methoxycinnamic acid-4′-sulfate] | 0.11
* COc1cc(/C=C/C(=O)OC2[C@H](O)CC(O)(C(=O)O)C[C@H]2O)ccc1O (stereo partly drawn) [4-Feruloylquinic acid] | 0.06
* COc1cc(CCC(=O)O)ccc1OS(=O)(=O)O [DHFA-4′-sulfate] | 1.5

Please look at the following compound next.
Return value of AUC0–24h for input COc1cc(CCC(=O)O)ccc1O[C@@H]1O[C@H](C(=O)O)[C@@H](O)[C@H](O)[C@H]1O [DHFA-4′-glucuronide] , no commentary.
1.1

* * *

- protocol: Fecal excretion of phenolic metabolites after intake of the GCPE nutraceutical
- assay-setup: feces; 0 h; week 8
Amount of fecal metabolite excreted at 0 h below 0.006 µmol/g gives false (0); Amount of fecal metabolite excreted at 0 h at or above it gives true (1).

# count of solved cases: 5
- O=C(O)c1ccc(O)c(O)c1 [3,4-Dihydroxybenzoic acid]: true (1)
- O=C(O)Cc1cccc(O)c1 [3′-Hydroxyphenylacetic acid]: true (1)
- COc1cc(/C=C/C(=O)OC2[C@H](O)CC(O)(C(=O)O)C[C@H]2O)ccc1O (stereo partly drawn): false (0)
- O=C(CCc1ccc(O)c(O)c1)OC1CC(O)(C(=O)O)CC(O)C1O (stereo not drawn) [5-Dihydrocaffeoylquinic acid]: true (1)
- COc1cc(CC(=O)O)ccc1O [4′-Hydroxy-3′-methoxyphenylacetic acid]: false (0)

Attention now turns to another entry.
Determine whether measured Amount of fecal metabolite excreted at 0 h meets or exceeds 0.006 µmol/g for O=C(O)c1cccc(O)c1 [3-Hydroxybenzoic acid]
true (1)

* * *

- protocol: Plasma pharmacokinetics of phenolic metabolites after intake of the GCPE nutraceutical (LC-MS-QToF)
- assay-setup: human, oral, 300 mg hydroxycinnamic acids, Tmax (h) or Range, week 0, first peak where biphasic
Tmax below 7 h gives No; Tmax at or above it gives Yes.

* COc1ccc(/C=C/C(=O)O)cc1O [iFA, 3′-Hydroxy-4′-methoxycinnamic acid] | No
* COc1cc(CCC(=O)O)ccc1O | Yes
* COc1ccc(CCC(=O)O)cc1OC [Dihydrodimethoxycinnamic acid, 3-(3′,4′-Dimethoxyphenyl)propanoic acid] | No
* O=C(O)c1cccc(O)c1 [3-Hydroxybenzoic acid] | Yes

Attention now turns to another entry.
Determine whether measured Tmax meets or exceeds 7 h for O=C(O)CCc1ccc(O)c(O)c1 [DHCA, 3-(3′,4′-Dihydroxyphenyl)propanoic acid]
Yes

* * *

Amount excreted in urine, 0- 3 h values by entry
- protocol: Urinary excretion of phenolic metabolites after intake of the GCPE nutraceutical
- assay-setup: week 8, interval 0–3 h
Respond numerically; units are µmol and should not be typed.

- O=C(O)/C=C/c1ccc(O)c(O)c1 [CA, 3′,4′-Dihydroxycinnamic acid]: 0.12
- O=C(O)CCc1ccc(OS(=O)(=O)O)c(O)c1 [DHCA-4′-sulfate]: 0.6
- COc1cc(CCC(=O)OC2CC(O)(C(=O)O)CC(O)C2O)ccc1O (stereo not drawn) [5-Dihydroferuloylquinic acid]: 0.08
- O=C(O)CNC(=O)c1ccc(O)cc1 [4′-Hydroxyhippuric acid]: 1.5
- COc1ccc(CCC(=O)O)cc1OC [Dihydrodimethoxycinnamic acid, 3-(3′,4′-Dimethoxyphenyl)propanoic acid]: 0.08

Please look at the following molecule next.
Return value of Amount excreted in urine, 0- 3 h for input O=C(CCc1ccc(O)c(O)c1)OC1CC(O)(C(=O)O)CC(O)C1O (stereo not drawn) [5-Dihydrocaffeoylquinic acid] , no commentary.
0.004
